Hey, just so you know, these numbers are from PubChem BioAssay.

- experimental-system: NADPH oxidase 5 (Homo sapiens)
- assay-name: compounds shifting NOX5 Amplex Red fluorescence – cell-based, HEK293-NOX5, NOX inhibitor project, primary screen (AID 1161)
- details: HEK293-NOX5, ionomycin, 45 min, higher = more signal

# compound, experimental-system, z-score
records = [
    ("C=CCC(OC(C)=O)[C@@H]1[C@@H](N(Cc2ccc(-c3ccccc3)cc2)C(=O)c2ccc(-c3ccccc3)cc2)c2cc(OCCCO)ccc2N1C(=O)c1ccc2ccccc2c1 (stereo not given in full)", "NADPH oxidase 5 (Homo sapiens)", 0.99),
    ("COc1cc(OC)c(C(O)C2C=CC3C(=O)N(Cc4ccccc4)C(=O)C3N2n2cnnc2)cc1Br (stereo not given)", "NADPH oxidase 5 (Homo sapiens)", -3.53),
    ("COc1cccc(C)c1NC(=O)O[C@H]1[C@H](OC(=O)Nc2ccccc2-c2ccccc2)[C@H](OC(=O)Nc2ccccc2-c2ccccc2)[C@@H](OC)O[C@@H]1CO", "NADPH oxidase 5 (Homo sapiens)", -0.507),
    ("CCOC(=O)C[C@H]1[C@H](OC(=O)c2ccc(C(=O)c3ccccc3)cc2)[C@@H](NC(=O)CC(C)C)c2cc(OCCCO)ccc2N1C(=O)c1ccccc1", "NADPH oxidase 5 (Homo sapiens)", 1.24),
    ("CCCC=C(CCC)[C@@H](NC(=O)C(C)(C)C)c1ccc(C(=O)OC)cc1", "NADPH oxidase 5 (Homo sapiens)", 2.5),
    ("CC(CO)N1C(=O)[C@@H]2[C@H]3C(=O)OCC=C[C@H]3OC23C=CCN(Cn2nnc4ccccc42)C(=O)[C@@H]13 (stereo not given in full)", "NADPH oxidase 5 (Homo sapiens)", 1.78),
    ("O=C1O[C@@H](c2ccccc2)[C@@H](c2ccccc2)N2[C@@H](c3ccc(O)cc3)[C@]3(C(=O)Nc4ccc(C#CCCO)cc43)[C@@H](C(=O)N3CCN(c4ncccn4)CC3)[C@H]12", "NADPH oxidase 5 (Homo sapiens)", 0.594),
    ("CCCCCN1CC=CC23O[C@@H]4C=CCCOC(=O)C4[C@H]2C(=O)N(CCCCCCO)[C@@H]3C1=O (stereo not given in full)", "NADPH oxidase 5 (Homo sapiens)", 2.08),
    ("CCCCC(=C=CC[C@H](O)c1ccc(OCCO)cc1)CCO", "NADPH oxidase 5 (Homo sapiens)", -2.06),
    ("CN1C2C=C(CCCO)C(C3C(=O)N(C(N)=O)C(=O)C32)C1C1CC1 (stereo not given)", "NADPH oxidase 5 (Homo sapiens)", 0.257),
    ("NC(=O)[C@@]1(Cc2ccccc2)COC(c2ccc(OCCCO)cc2)=N1", "NADPH oxidase 5 (Homo sapiens)", -2.14),
    ("NCCCCCNC(=O)[C@H]1C[C@H]2C(=O)N3CCC[C@H]3C(=O)N2[C@H]1c1cccc(OCCO)c1", "NADPH oxidase 5 (Homo sapiens)", 2.48),
    ("COCC(=C=CC[C@H](O)c1ccc(OCCO)cc1)CCO", "NADPH oxidase 5 (Homo sapiens)", -0.704),
    ("COCCOC(=O)N1C(=O)[C@@]2(c3cc(C#CCCO)ccc31)[C@H](C(=O)Nc1nc3ccccc3s1)[C@H]1C(=O)O[C@H](c3ccccc3)[C@H](c3ccccc3)N1[C@@H]2c1ccc(O)cc1", "NADPH oxidase 5 (Homo sapiens)", 0.329),
    ("C=CCC(OC(C)=O)[C@@H]1[C@@H](N(Cc2cccc3ccccc23)C(=O)Cc2ccc(F)cc2)c2cc(OCCCO)ccc2N1C(=O)c1ccc2ccccc2c1 (stereo not given in full)", "NADPH oxidase 5 (Homo sapiens)", 0.453),
]

###

- assay-name: blood-stage malaria parasite viability loss – strain 3D7, DAPI fluorescence, 100 nL, primary screen (AID 1184);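 also: parasites grown inside human red blood cells in medium with human serum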
- details: P. falciparum 3D7 growth, 3 d, higher = more signal

# molecule, z-score
measured = [
    ("NC(=O)NCC#Cc1ccc2c(c1)[C@]1(C(=O)N2)[C@H](C(=O)N2CCN(c3ncccn3)CC2)[C@H]2C(=O)O[C@H](c3ccccc3)[C@H](c3ccccc3)N2[C@@H]1c1ccc(O)cc1", 1.79),
    ("C=CCC(OC(C)=O)[C@@H]1[C@@H](N(Cc2ccc(-c3ccccc3)cc2)C(=O)c2ccc(-c3ccccc3)cc2)c2cc(OCCCO)ccc2N1C(=O)c1ccc2ccccc2c1 (stereo partly drawn)", 0.248),
    ("COc1ccc([Si](C)(C)[C@H]2[C@H](CC(=O)N3Cc4ccccc4C[C@H]3CO)O[C@@]3(C(=O)N(Cc4ccc(N5CCOC5=O)cc4)c4ccccc43)[C@@H]2C)cc1", -0.847),
    ("CC(C)c1ccc(NN2C(C(O)c3ccc(C#N)cc3)C=CC3C(=O)N(c4ccccc4)C(=O)C32)cc1 (stereo not drawn)", 0.109),
    ("C[C@@H]1NC(=O)[C@@H](Cc2ccccc2)NC(=O)[C@@]23C(=O)N[C@@H](Cc4ccccc4)C2[C@H](C)[C@@]2(C)O[C@H]2C3/C=C/C/C=C\\CNC1=O (stereo partly drawn)", -0.132),
    ("COC(=O)c1c(CC[C@@H](CO)NC(=O)N[C@@H](C)Cn2cc(-c3ccccn3)nn2)oc(C(C)=O)c1C(=O)OC", -1.89),
    ("COC(=O)[C@@]1(Cc2ccccc2)[C@H]2c3cc(C(=O)N4CCCC4)n(CCc4ccccn4)c3C[C@H]2CN1C(=O)c1ccccc1", -1.25),
    ("COCCOC(=O)N1C(=O)[C@@]2(c3cc(C#CC4(O)CCCCCC4)ccc31)[C@H](c1ccc(O)cc1)N1[C@H](c3ccccc3)[C@H](c3ccccc3)OC(=O)[C@H]1[C@@H]2C(=O)N1CCN(c2ncccn2)CC1", -1.99),
    ("COc1ccc(CCNC(=O)[C@@]2(c3ccc([N+](=O)[O-])cc3)CC(=O)N(C3CCCCC3)[C@@H]2c2ccc(CO)cc2)cc1", -0.171),
    ("[N-]=[N+]=Nc1ccccc1C[C@]1(C(=O)N2CCOCC2)COC(c2ccc(OCCCO)cc2)=N1", -2.03),
    ("COC(=O)c1c(CC[C@@H](CO)NC(=O)N2CCC[C@H]2Cn2cc(C3(O)CCCCC3)nn2)oc(C(C)=O)c1C(=O)OC", -0.373),
    ("CCOC(=O)[C@@H]1CCCCN1C(=O)C(=O)OC", 1.99),
    ("COc1ccc([Si](C)(C)[C@@H]2[C@@H](CC(=O)N(CCO)Cc3ccccc3)O[C@]3(C(=O)N(Cc4cccc(N5CCCCC5=O)c4)c4ccccc43)[C@H]2C)cc1", -2.44),
]

###

- assay-name: compound effects on hepatocellular carcinoma cell viability – HepG2, calcein-AM fluorescence, 48 h, basal, profiling panel (AID 1164); also: test concentration not given here
- details: higher = more signal

# compound, z-score
records = [
    ("CC1CC/C=C\\[C@H]2OC34C=CCN(c5ccc(Cl)cc5)C(=O)[C@H]3N(C(C)CO)C(=O)[C@]4(C)C2C(=O)O1 (some centres not stated)", 1.24),
    ("COc1ccc(C#Cc2ccc3c(c2)[C@]2(C(=O)N3)[C@H](c3ccc(OCCO)cc3)N3[C@H](c4ccccc4)[C@H](c4ccccc4)OC(=O)[C@H]3[C@@H]2C(=O)NC[C@H](O)c2ccccc2)cc1", 1.08),
    ("COC(=O)C1=CC(CCCO)=CC(c2ccc(CN3CCCC3)cc2)N(Cc2cccc(OC(F)(F)F)c2)C=C1C(=O)OC (configuration not stated)", 1.34),
    ("COCCOC(=O)N1C(=O)[C@@]2(c3cc(C#CCCO)ccc31)[C@H](c1ccc(OCCO)cc1)N1[C@H](c3ccccc3)[C@H](c3ccccc3)OC(=O)[C@H]1[C@@H]2C(=O)Nc1nc2ccccc2s1", 0.779),
    ("CC(C)C[C@@H]1NC(=O)[C@@H]2C[C@H](C(=O)NCCCCCCN)[C@H](c3cccc(OCCO)c3)N2C1=O", -0.822),
    ("COC(=O)C/C=C/C[C@]1(O)C(=O)N(C)c2ccccc21", 1.39),
    ("C=CCC(OC(C)=O)[C@@H]1[C@@H](N(Cc2cc3ccccc3o2)C(=O)Cc2ccc(F)cc2)c2cc(OCCCO)ccc2N1C(=O)Cc1ccc2ccccc2c1 (some centres not stated)", 0.766),
]

###

compounds and their reported composite z-score
- experimental-system: Calmodulin-1 (Homo sapiens)
- assay-name: small molecules binding Ca-loaded calmodulin-1 – biochemical, small-molecule microarray, Cy5-labelled CALM1, plus calcium, artefact control for SMM control-protein annotation, profiling panel (AID 1112);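 also: score merges spot fluorescence with signal to noise from triplicate slides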
- details: Cy5-CALM1 binding fluorescence, higher = more signal

# compound, composite z-score
measured = [
    ("[N-]=[N+]=Nc1ccccc1C[C@]1(C(=O)N2CCOCC2)COC(c2ccc(OCCCO)cc2)=N1", -0.554),
    ("CCOC(=O)C[C@H]1[C@H](OC(=O)Cc2ccc3c(c2)OCO3)[C@@H](NC(=O)C2CCCCC2)c2cc(OCCCO)ccc2N1C(=O)c1ccccc1", 0.389),
    ("CCCCC(=C=CC[C@H](O)c1ccc(OCCO)cc1)CCO", -0.404),
    ("CCCN1C(=O)[C@@]2(Cc3ccccc31)N=C(c1ccc(OCCCO)cc1)O[C@H]2c1ccccc1", -0.29),
    ("COc1ccc([Si](C)(C)[C@@H]2[C@@H](CCO)O[C@]3(C(=O)N(Cc4ccccc4)c4ccc(NC(=O)[C@H](C)O)cc43)[C@H]2C)cc1", -0.153),
    ("COc1ccc(C#Cc2ccc3c(c2)[C@]2(C(=O)N3)[C@H](C(=O)O)[C@H]3C(=O)O[C@H](c4ccccc4)[C@H](c4ccccc4)N3[C@@H]2c2ccc(O)cc2)cc1", 1.2),
    ("COCC(=C=CC[C@H](O)c1ccc(CO)o1)CCO", -0.249),
    ("Oc1ccc2cc[n+](Cc3cc4c(cc3Br)OCO4)cc2c1", 0.446),
    ("CC(CO)N1C(=O)[C@]2(C)C3C(=O)OCCC/C=C\\[C@H]3OC23C=CCN(c2ccc(Cl)cc2)C(=O)[C@@H]13 (stereo partly drawn)", 0.079),
    ("COC(=O)[C@@]1(Cc2ccc(F)cc2)[C@H]2c3cc(C(=O)N4CCCC4)n(Cc4ccc(C)c(F)c4F)c3C[C@H]2CN1C(=O)c1ccccc1", 0.612),
    ("C=CCN1Cc2ccccc2[C@@H]2OC(c3ccc(OCCCO)cc3)=N[C@]2(CC=C)C1=O", -0.0856),
    ("CC#CCO[Si](C#Cc1ccccc1)(C(C)C)C(C)C", 0.877),
    ("NCCCCCNC(=O)[C@@H]1C[C@@H]2C(=O)N[C@@H](CCCCN)C(=O)N2[C@@H]1c1ccc(O)cc1", 0.325),
    ("COC(=O)C1=CC(CCCO)=CC(c2ccc(CN3CCCC3)cc2)N(Cc2cccc(OC(F)(F)F)c2)C=C1C(=O)OC (stereo not drawn)", 0.695),
    ("OCCCC1=CC(c2ccc(CN3CCCC3)cc2)N(Cc2cc3c(cc2Br)OCO3)CC1 (stereo not drawn)", -0.811),
    ("COc1ccc([Si](C)(C)[C@@H]2[C@@H](CCO)O[C@]3(C(=O)N(Cc4cccc(NC(=O)[C@H](C)O)c4)c4ccccc43)[C@H]2C)cc1", -0.204),
    ("CC[C@@H]1C=C(C(=O)O)[C@H](c2ccccc2)N1S(=O)(=O)c1ccc(C)cc1", 1.03),
    ("COC(=O)[C@@H]1N=C(c2ccc(OCCCO)cc2)O[C@@H]1C", -1.2),
]
